# target: T1, Soluble IGF-1R (R&D Systems, Cat. # 391-GR/CF) (UniProt P08069 31-935, limits assumed)
# T1 construct: extracellular domain; also called sIGF-1R; IGFR
# assay.protocol: phage ELISA: IGF-1R ratio over background divided by IR ratio over background
assay.metric: Comparison IGF-1R/IR (ratio)
Give the number; ratio is assumed, so skip it.

Examples with their reported Comparison IGF-1R/IR follow.
DYKDMNVFVSFYDAIDQLVCQRIGCAAAGAP (not shown: rest of the phage display fusion (remainder of E-Tag, phage coat protein)) [20E2A-4-G11-IGFR] | 2.6
DYKDCSMAAVAEAGDDDDPFYHKLSELCQGSAAAGAP (not shown: rest of the phage display fusion (remainder of E-Tag, phage coat protein)) [B6Hα-3-F1-IR] | 1.8
DYKDGLDHSDAVGVHLGFAWPAQARGRWEAGGLEDTWAGYDWLAAAGAP (not shown: rest of the phage display fusion (remainder of E-Tag, phage coat protein)) [40F-4-B1-IGFR] | 13.1
DYKDGHYFGSFYDAIDQLVAGMLPGAAAGAP (not shown: rest of the phage display fusion (remainder of E-Tag, phage coat protein)) [20E2A-3-A3-IGFR] | 1.9
DYKDAETSAQVGWQRLWSVWPGDHWSTLDPFYHKLSELLRESGAAAAGAP (not shown: rest of the phage display fusion (remainder of E-Tag, phage coat protein)) [B6L-3-G5-IR] | 1.4
DYKDAGSVTSFYDAMEQLVATGTSAAAAGAP (not shown: rest of the phage display fusion (remainder of E-Tag, phage coat protein)) [20E2A-3-A4-IGFR] | 1.4
DYKDCGAKMTGTPNDPFYHKLSELLQRGAAAGAP (not shown: rest of the phage display fusion (remainder of E-Tag, phage coat protein)) [B6Hα-3-E6-IR] | 1.9

Now, please, on to the next binder.
Record DYKDGCITAENGAGDPFYHKLSELGGCSAAAGAP (not shown: rest of the phage display fusion (remainder of E-Tag, phage coat protein)) [B6Hα-1-B3-IR] , field Comparison IGF-1R/IR: 2.9
